All figures here come from patent US20260297129A1.

Here, each record is paired with measured remaining at 4 h, 1 µM data.
experiment: Protease stability in simulated intestinal fluids (FaSSIF) (Table 7); type: in vitro ADME; settings: fassif with pancreatin, 240 min, 37° C., read-out: Remaining percentage of peptide compound, FaSSIF 240 (min)
Numbered stars: 1 amine (or outer) side, 2 acyl side, 3 side chain; on linkers, the order of the positions; unused ones are H or OH. Bridge positions count the residues as written; N and C are the ends. Square brackets hold non-standard residues; d marks the D form. Peptide text beside a SMILES is read from it. * marks the point of attachment. Lys(Me,(CH2)4NMe(CH2)5CO) = CN(CCCCCC(=O)[*:3])CCCCN(C)CCCC[C@H](N[*:1])C(=O)[*:2]; Lys(Me,(CH2)4NMe(CH2)4CO) = CN(CCCCC(=O)[*:3])CCCCN(C)CCCC[C@H](N[*:1])C(=O)[*:2]; Trp(7-Me) = Cc1cccc2c(C[C@H](N)C(=O)O)c[nH]c12; Trp(1-Me) = Cn1cc(C[C@H](N)C(=O)O)c2ccccc21; αMeLys(Me2) = CN(C)CCCC[C@](C)(N)C(=O)O; 2Nal = N[C@@H](Cc1ccc2ccccc2c1)C(=O)O; X4 = O=C(CCCCCCCCCCCCCCCN[*:1])[*:2]; 3Pal = N[C@@H](Cc1cccnc1)C(=O)O; Aun = NCCCCCCCCCCC(=O)O; Thp = NC1(C(=O)O)CCOCC1; Me2NCH2CH2 = CN(C)CC*; Aib = CC(C)(N)C(=O)O; Aoc = NCCCCCCCC(=O)O; Sar = CNCC(=O)O
quantity name: remaining at 4 h, 1 µM

compound="Cc1cccc2c(C[C@@H]3NC(=O)CCCCCCCCCCCCCCCNC(=O)CC[C@@H](C(=O)N[C@@H](CC(N)=O)C(=O)N[C@@H](Cc4cccnc4)C(=O)N(C)CC(N)=O)NC(=O)C(C)(C)NC(=O)[C@H](Cc4ccc5ccccc5c4)NC(=O)[C@H](Cc4ccc(OCCN(C)C)cc4)NC(=O)C4(CCOCC4)NC(=O)[C@H](CCC(N)=O)NC3=O)c[nH]c12 [compound 3] ([X4][Trp(7-Me)]Q[Thp]Y(Me2NCH2CH2)[2Nal][Aib]EN[3Pal][Sar]-NH2; lactam N-8)" quantity_name="remaining at 4 h, 1 µM" observed=81%
compound="CN(C)CCOc1ccc(C[C@@H]2NC(=O)C3(CCOCC3)NC(=O)[C@H](CCC(N)=O)NC(=O)[C@H](Cc3cn(C)c4ccccc34)NC(=O)CCCCCN(C)CCCCN(C)CCCC[C@@H](C(=O)N[C@@H](CC(N)=O)C(=O)N[C@@H](Cc3cccnc3)C(=O)N(C)CC(N)=O)NC(=O)C(C)(C)NC(=O)[C@H](Cc3ccc4ccccc4c3)NC2=O)cc1 [compound 33] ([Trp(1-Me)]Q[Thp]Y(Me2NCH2CH2)[2Nal][Aib][Lys(Me,(CH2)4NMe(CH2)5CO)]N[3Pal][Sar]-NH2; lactam N-7)" quantity_name="remaining at 4 h, 1 µM" observed=94%
compound="Cc1cccc2c(C[C@@H]3NC(=O)CCCCCCCNC(=O)CC[C@@H](C(=O)N[C@@H](CC(N)=O)C(=O)N[C@@H](Cc4cccnc4)C(=O)N(C)CC(N)=O)NC(=O)C(C)(C)NC(=O)[C@H](Cc4ccc5ccccc5c4)NC(=O)[C@H](Cc4ccc(OCCN(C)C)cc4)NC(=O)C4(CCOCC4)NC(=O)[C@H](CCC(N)=O)NC3=O)c[nH]c12 [compound 6] ([Aoc][Trp(7-Me)]Q[Thp]Y(Me2NCH2CH2)[2Nal][Aib]EN[3Pal][Sar]-NH2; lactam N-8)" quantity_name="remaining at 4 h, 1 µM" observed=77%
compound="Cc1cccc2c(C[C@@H]3NC(=O)CCCCCCCCCCNC(=O)CC[C@@H](C(=O)N[C@@H](CC(N)=O)C(=O)N[C@@H](Cc4cccnc4)C(=O)N(C)CC(N)=O)NC(=O)[C@](C)(CCCCN(C)C)NC(=O)[C@H](Cc4ccc5ccccc5c4)NC(=O)[C@H](Cc4ccc(OCCN(C)C)cc4)NC(=O)C4(CCOCC4)NC(=O)[C@H](CCC(N)=O)NC3=O)c[nH]c12 [compound 20] ([Aun][Trp(7-Me)]Q[Thp]Y(Me2NCH2CH2)[2Nal][αMeLys(Me2)]EN[3Pal][Sar]-NH2; lactam N-8)" quantity_name="remaining at 4 h, 1 µM" observed=97%
compound="Cc1cccc2c(C[C@@H]3NC(=O)CCCCN(C)CCCCN(C)CCCC[C@@H](C(=O)N[C@@H](CC(N)=O)C(=O)N[C@@H](Cc4cccnc4)C(=O)N(C)CC(N)=O)NC(=O)C(C)(C)NC(=O)[C@H](Cc4ccc5ccccc5c4)NC(=O)[C@H](Cc4ccc(OCCN(C)C)cc4)NC(=O)C4(CCOCC4)NC(=O)[C@H](CCC(N)=O)NC3=O)c[nH]c12 [compound 46] ([Trp(7-Me)]Q[Thp]Y(Me2NCH2CH2)[2Nal][Aib][Lys(Me,(CH2)4NMe(CH2)4CO)]N[3Pal][Sar]-NH2; lactam N-7)" quantity_name="remaining at 4 h, 1 µM" observed=85%

* * *

assay: Chemical stability (relative purity loss) of peptide compounds in buffer formulations (Table 6); format: physicochemical; details: 50 mM phosphate buffer pH 6.5 + acetonitrile (3:1), 2° C. and 37° C., read-out: Chemical stability (relative purity loss), Buffer pH 6.5
Numbered stars: 1 amine (or outer) side, 2 acyl side, 3 side chain; on linkers, the order of the positions; unused ones are H or OH. Bridge positions count the residues as written; N and C are the ends. Square brackets hold non-standard residues; d marks the D form. Peptide text beside a SMILES is read from it. * marks the point of attachment. Lys(Me,(CH2)4NMe(CH2)4CO) = CN(CCCCC(=O)[*:3])CCCCN(C)CCCC[C@H](N[*:1])C(=O)[*:2]; Trp(7-Me) = Cc1cccc2c(C[C@H](N)C(=O)O)c[nH]c12; 2Nal = N[C@@H](Cc1ccc2ccccc2c1)C(=O)O; X1 = O=C(CCCCCCCCCCCCCN[*:1])[*:2]; 3Pal = N[C@@H](Cc1cccnc1)C(=O)O; Thp = NC1(C(=O)O)CCOCC1; Me2NCH2CH2 = CN(C)CC*; Aib = CC(C)(N)C(=O)O; Sar = CNCC(=O)O
quantity name: degraded at 24 h

molecule="CN(C)CCOc1ccc(C[C@@H]2NC(=O)C3(CCOCC3)NC(=O)[C@H](CCC(N)=O)NC(=O)[C@H](Cc3c[nH]c4ccccc34)NC(=O)CCCCN(C)CCCCN(C)CCCC[C@@H](C(=O)N[C@@H](CO)C(=O)N[C@@H](Cc3cccnc3)C(=O)N(C)CC(N)=O)NC(=O)C3(CCOCC3)NC(=O)[C@H](Cc3ccc4ccccc4c3)NC2=O)cc1 [compound 43] (WQ[Thp]Y(Me2NCH2CH2)[2Nal][Thp][Lys(Me,(CH2)4NMe(CH2)4CO)]S[3Pal][Sar]-NH2; lactam N-7)" quantity_name="degraded at 24 h" observed=0%
molecule="Cc1cccc2c(C[C@@H]3NC(=O)CCCCCCCCCCCCCNC(=O)CC[C@@H](C(=O)N[C@@H](CC(N)=O)C(=O)N[C@@H](Cc4cccnc4)C(=O)N(C)CC(N)=O)NC(=O)C(C)(C)NC(=O)[C@H](Cc4ccc5ccccc5c4)NC(=O)[C@H](Cc4ccc(OCCN(C)C)cc4)NC(=O)C4(CCOCC4)NC(=O)[C@H](CCC(N)=O)NC3=O)c[nH]c12 [compound 1] ([X1][Trp(7-Me)]Q[Thp]Y(Me2NCH2CH2)[2Nal][Aib]EN[3Pal][Sar]-NH2; lactam N-8)" quantity_name="degraded at 24 h" observed=0%

* * *

assay: Protease stability in simulated gastric fluids (FaSSGF) (Table 7); type: in vitro ADME; settings: fassgf with pepsin, 60 min, 37° C., read-out: Remaining percentage of peptide compound, FaSSGF 60 (min)
Numbered stars: 1 amine (or outer) side, 2 acyl side, 3 side chain; on linkers, the order of the positions; unused ones are H or OH. Bridge positions count the residues as written; N and C are the ends. Square brackets hold non-standard residues; d marks the D form. Peptide text beside a SMILES is read from it. * marks the point of attachment. Lys(Me,(CH2)4NMe(CH2)4CO) = CN(CCCCC(=O)[*:3])CCCCN(C)CCCC[C@H](N[*:1])C(=O)[*:2]; X3 = Cc1cccc2c(C[C@H](N[*:1])C(=O)[*:2])cn(C)c12; Trp(7-Me) = Cc1cccc2c(C[C@H](N)C(=O)O)c[nH]c12; NH(2-(3-pyridyl)ethyl) = c1cncc(CCN*)c1; Sebacoyl = O=C(CCCCCCCCC(=O)[*:2])[*:1]; 2Nal = N[C@@H](Cc1ccc2ccccc2c1)C(=O)O; Lys(Me) = CNCCCC[C@H](N)C(=O)O; Thp = NC1(C(=O)O)CCOCC1; Me2NCH2CH2 = CN(C)CC*; Aib = CC(C)(N)C(=O)O
quantity name: remaining at 1 h, 1 µM (%)

compound="Cc1cccc2c(C[C@@H]3NC(=O)CCCCCCCCC(=O)N(C)CCCC[C@@H](C(=O)NCC(=O)NCCc4cccnc4)NC(=O)C(C)(C)NC(=O)[C@H](Cc4ccc5ccccc5c4)NC(=O)[C@H](Cc4ccc(OCCN(C)C)cc4)NC(=O)C4(CCOCC4)NC(=O)[C@H](CC(C)C)NC3=O)c[nH]c12 [compound 17] ([Trp(7-Me)]L[Thp]Y(Me2NCH2CH2)[2Nal][Aib][Lys(Me)]G-{NH(2-(3-pyridyl)ethyl)}; linker N-7 via Sebacoyl)" observed=13
compound="Cc1cccc2c(C[C@@H]3NC(=O)CCCCN(C)CCCCN(C)CCCC[C@@H](C(=O)NCC(=O)NCCc4cccnc4)NC(=O)C(C)(C)NC(=O)[C@H](Cc4ccc5ccccc5c4)NC(=O)[C@H](Cc4ccc(OCCN(C)C)cc4)NC(=O)C4(CCOCC4)NC(=O)[C@H](CC(C)C)NC3=O)cn(C)c12 [compound 49] ([X3]L[Thp]Y(Me2NCH2CH2)[2Nal][Aib][Lys(Me,(CH2)4NMe(CH2)4CO)]G-{NH(2-(3-pyridyl)ethyl)}; lactam N-7)" observed=99
